Molecular target: T1, CD81 (UniProt P60033 1-236, limits assumed)
T1 construct: whole, on cells; also called CD81 receptor
T1 sequence (looked up): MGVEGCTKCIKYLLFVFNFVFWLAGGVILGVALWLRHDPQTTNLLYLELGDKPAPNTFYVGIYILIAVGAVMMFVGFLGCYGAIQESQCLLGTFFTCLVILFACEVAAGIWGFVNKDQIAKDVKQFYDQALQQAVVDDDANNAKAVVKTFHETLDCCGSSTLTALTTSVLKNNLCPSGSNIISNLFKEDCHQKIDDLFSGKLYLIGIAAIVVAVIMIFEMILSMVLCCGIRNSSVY
Test: cell ELISA;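 also: antibody binding to HuH7 cells expressing CD81 versus a CD81-negative HuH7 control line, bound antibody detected by secondary reagent, absorbance at 450 nm with 620 nm reference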
test readout: ELISA data
Respond using a number only.

[Q] Could you please provide reported ELISA data for CD81K13 HC 05-hVH_1_69 / LC 5b-hVK_1_39 (antibody, V domains shown, human constant region) VH: QVQLVQSGAEVKKPGSSVKVSCKASGFNFKDSYLHWVRQAPGQGLEWMGRIDTGNGNVKFDPKFQGRVTITTDESTSTAYMELSSLRSEDTAVYYCVPYGYGFHSWGQGTLVTVSS VL: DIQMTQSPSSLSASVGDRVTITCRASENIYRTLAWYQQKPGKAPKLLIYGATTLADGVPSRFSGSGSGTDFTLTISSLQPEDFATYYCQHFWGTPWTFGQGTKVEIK ? Thanks!
[A] 0.692

[Q] Could you please provide reported ELISA data for CD81K13 HC 02-hVH_1_3 / LC CD81K13 (antibody, V domains shown, human constant region) VH: QVQLVQSGAEVKKPGASVKVSCKASGYTFTDSYMHWVRQAPGQRLEWMGRIDTGNGNTKYSQKFQGRVTITTDTSASTAYMELSSLRSEDTAVYYCAPYGYGFHSWGQGTLVTVSS VL: DIQMTQSPASLSVSVGETVTITCRASENIYRTLAWYLQKQGKSPQLLVYGATTLADGVPSRFSGSGSGTQYYLKINSLQSEDFGTYHCQHFWGTPWTFGGGTKVEIK ? Thanks!
[A] 0.585
